Molecular target: hSK3 channels (Homo sapiens)
Assay: whole-cell patch-clamp recording of SK3 current in HEK293 cells expressing hSK3 channels
Settings: current at −75 mV, free Ca2+ 0.3-0.4 μM, room temperature, read-out: Kd value (concentration required for decreasing the baseline current to 50% of the initial current)
Measured Kd by item

• N=C1N(Cc2ccc(F)c(F)c2)CCCN1Cc1ccc(F)c(F)c1 = < 1000 nM

Now, please, on to the next compound.
[Q] Enter reported Kd observed with hSK3 channels (Homo sapiens) for "COc1ccc(OC(F)(F)F)cc1CN1CCN(Cc2cc(OC(F)(F)F)ccc2OC)C1=N"
[A] < 1000 nM
